ASSAY_SYSTEM: HLA-DR DRB1*0301 (DR3) (Homo sapiens, UniProt P01903+P01911, A100K/A102G/A103R/A169T/F55Y/I96L/K41T/L162R/M171V/P40S/Q125H/Q178H/Q39Y/R42S/S66N/T106N/T262R/W38E/Y61H)
Sequence (P01903 26-254 limits assumed, other chains not shown): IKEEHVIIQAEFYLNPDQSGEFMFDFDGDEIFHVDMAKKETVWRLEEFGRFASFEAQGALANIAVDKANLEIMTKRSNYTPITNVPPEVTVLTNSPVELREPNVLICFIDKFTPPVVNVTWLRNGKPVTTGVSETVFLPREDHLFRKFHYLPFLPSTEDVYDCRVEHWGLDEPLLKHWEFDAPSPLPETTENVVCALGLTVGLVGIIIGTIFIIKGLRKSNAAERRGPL
PROTOCOL_DESCRIPTION: biochemical
Type: binding
pIC50: −log10 of the molar value.
MEASURED_METRIC: pIC50

QUERY: Query: pIC50; subject: CSCC[C@H](NC(=O)[C@@H](N)Cc1c[nH]c2ccccc12)C(=O)N[C@@H](Cc1ccc(O)cc1)C(=O)N[C@@H](Cc1ccc(O)cc1)C(=O)N[C@@H](Cc1c[nH]cn1)C(=O)NCC(=O)N[C@@H](CCC(N)=O)C(=O)N[C@@H](CCCNC(=N)N)C(=O)N[C@@H](Cc1c[nH]cn1)C(=O)N[C@@H](CO)C(=O)N[C@@H](CC(=O)O)C(=O)N[C@@H](CCC(=O)O)C(=O)N[C@@H](Cc1c[nH]cn1)C(=O)N[C@@H](Cc1c[nH]cn1)C(=O)N[C@@H](Cc1c[nH]cn1)C(=O)O
RESULT: < 3.05
